Property: melting point; scope: individual compounds
Counter-ions that a name gives are not always drawn.

compound: CN(C)CCC(O)(c1ccccc1)c1cc(Br)cc2cc(Cc3ccccc3)c(N3CCOCC3)nc12 (stereo not drawn)
melting point [°C]: 70
//
compound: CN(C)CCC(O)(c1cc(F)cc(F)c1)c1cccc2nc(N(C)C)c(-c3ccccc3)cc12 (stereo not drawn) (as salt: salt)
melting point [°C]: 136
//
compound: CN(C)CCC(O)(c1cccc2ccccc12)c1cc(Br)cc2cc(-c3ccccc3)c(=O)[nH]c12 (stereo not drawn)
melting point [°C]: 190
//
compound: CN(C)CCC(O)(Cc1c(Cc2ccccc2)c(-c2cccnc2)nc2ccccc12)c1cc(F)cc(F)c1 (stereo not drawn)
melting point [°C]: 164
//
compound: COc1nc2c(C(O)(CCN(C)C)c3ccccc3)cc(-c3cccnc3)cc2cc1Cc1ccccc1 (stereo not drawn)
melting point [°C]: 180
//
compound: COc1nc2c(C(O)(CCN(C)C)c3ccccc3)cc(Br)cc2cc1Cc1ccccc1 (stereo not drawn)
melting point [°C]: 66
//
compound: COc1nc2c(C(O)(CCN(C)C)c3cc(F)cc(F)c3)cc(-c3cccnc3)cc2cc1-c1ccccc1 (stereo not drawn) (as salt: salt)
melting point [°C]: 156
//
compound: CN(C)CCC(O)(c1cc(F)cc(F)c1)c1ccc2nc(-c3cccnc3)cc(-c3ccccc3)c2c1 (stereo not drawn) (as salt: salt)
melting point [°C]: 151
//
compound: CN(C)CCC(O)(Cc1c(Cc2ccccc2)c(-c2ccco2)nc2ccccc12)c1cc(F)cc(F)c1 (stereo not drawn)
melting point [°C]: 130
